Where these numbers come from: patent US20110318266A1

Exercise: state measured IC50 for each of the molecules provided.
Answer format: numeric, nM implied, no suffix.

[ask] Hi! What's the reported IC50 for Cc1cccc2c1C(=O)N(c1ccc(NC(=O)c3ccccn3)cc1Br)C2=O [Example 29] on mGluR4 (Homo sapiens, UniProt Q14833)?
[reply] 12

[ask] Hi! What's the reported IC50 for O=C(Nc1ccc(N2C(=O)c3ccccc3C2=O)cc1)c1ccccn1 [Example 1] on mGluR4 (Homo sapiens, UniProt Q14833)?
[reply] 712

----------
Exercise: state measured EC50 for each of the compounds provided.
Molecular target: mGluR4 (Homo sapiens)
Sequence (Q14833 33-912): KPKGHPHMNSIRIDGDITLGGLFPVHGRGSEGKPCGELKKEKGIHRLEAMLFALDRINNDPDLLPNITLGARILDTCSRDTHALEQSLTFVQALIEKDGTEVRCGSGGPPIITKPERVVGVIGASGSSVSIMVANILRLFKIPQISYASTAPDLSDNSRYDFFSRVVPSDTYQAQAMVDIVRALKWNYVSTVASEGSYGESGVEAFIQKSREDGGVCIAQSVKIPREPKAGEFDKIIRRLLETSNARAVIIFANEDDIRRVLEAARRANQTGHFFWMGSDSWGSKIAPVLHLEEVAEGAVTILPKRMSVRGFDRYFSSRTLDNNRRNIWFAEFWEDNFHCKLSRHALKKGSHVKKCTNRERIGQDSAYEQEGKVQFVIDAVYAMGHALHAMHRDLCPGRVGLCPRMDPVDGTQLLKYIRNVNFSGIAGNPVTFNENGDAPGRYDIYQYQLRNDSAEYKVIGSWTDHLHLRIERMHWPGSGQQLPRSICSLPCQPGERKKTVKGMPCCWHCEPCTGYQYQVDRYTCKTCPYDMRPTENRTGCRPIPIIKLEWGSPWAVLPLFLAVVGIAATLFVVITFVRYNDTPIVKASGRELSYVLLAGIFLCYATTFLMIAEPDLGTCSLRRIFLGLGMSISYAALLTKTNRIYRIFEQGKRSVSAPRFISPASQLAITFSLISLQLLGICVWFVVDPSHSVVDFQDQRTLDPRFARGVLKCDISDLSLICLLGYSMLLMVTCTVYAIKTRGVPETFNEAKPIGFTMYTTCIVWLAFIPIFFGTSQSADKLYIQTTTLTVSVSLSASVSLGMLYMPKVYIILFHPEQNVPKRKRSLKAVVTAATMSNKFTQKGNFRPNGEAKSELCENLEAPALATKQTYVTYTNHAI
Test: Fluorescent Plate Imaging Reader (FLIPR) Assay for mGluR4 Potentiators
Assay type: cell-based
Set-up: expressed in transfected cells
Settings: potentiator response with EC10 concentration of L-AP4 (30 nM); inflection point of the curve; read-out: mGluR4 FLIPR Potency
Answer format: numeric, nM implied, no suffix.

[ask] Reported EC50 for "O=C(Nc1ccc(N2C(=O)c3cccc(F)c3C2=O)c(Cl)c1)c1ccccn1" : what is it?
[reply] 50.4

[ask] Reported EC50 for "O=C(Nc1ccc(N2C(=O)c3ccccc3C2=O)cc1)c1ccccn1" : what is it?
[reply] 341

[ask] Reported EC50 for "Cc1cc(NC(=O)c2ccccn2)ccc1N1C(=O)c2ccccc2C1=O" : what is it?
[reply] 390

[ask] Reported EC50 for "Cc1cccc2c1C(=O)N(c1ccc(NC(=O)c3ccccn3)cc1Br)C2=O" : what is it?
[reply] 101

[ask] Reported EC50 for "Cc1cccc2c1C(=O)N(c1ccc(NC(=O)c3ccccn3)cc1Cl)C2=O" : what is it?
[reply] 43.6

----------
Exercise: state measured Emax for each of the compounds provided.
Target: mGluR4 (Homo sapiens)
Assay: Fluorescent Plate Imaging Reader (FLIPR) Assay for mGluR4 Potentiators
Assay type: cell-based
Parameters: expressed in transfected cells
Settings: maximal activity relative to response with saturating concentration (10 uM) of agonist L-AP4; read-out: mGlu4 FLIPR % Max Efficacy
Answer format: numeric, % implied, no suffix.

[ask] Reported Emax for O=C(Nc1ccc(N2C(=O)c3cccc(F)c3C2=O)c(Cl)c1)c1ccccn1 [Example 10] : what is it?
[reply] 110

[ask] Reported Emax for Cc1cc(NC(=O)c2ccccn2)ccc1N1C(=O)c2ccccc2C1=O [Example 3] : what is it?
[reply] 104

[ask] Reported Emax for O=C(Nc1ccc(N2C(=O)c3ccccc3C2=O)cc1)c1ccccn1 [Example 1] : what is it?
[reply] 52

[ask] Reported Emax for Cc1cccc2c1C(=O)N(c1ccc(NC(=O)c3ccccn3)cc1Cl)C2=O [Example 13] : what is it?
[reply] 125

[ask] Reported Emax for Cc1cccc2c1C(=O)N(c1ccc(NC(=O)c3ccccn3)cc1Br)C2=O [Example 29] : what is it?
[reply] 109
